# System: CP260
# Procedure details: qHTS profiling for inhibitors of Plasmodium falciparum proliferation (AID 504749); also: nearly all actives have a fitted effect of over 60% in size
# Condition description: P. falciparum in erythrocytes, SYBR Green DNA, 72 h; series mostly up to 28.7 µM
Records with an inconclusive call do not appear. The source made the active and inactive calls. Calls follow the shape of the dose curve; as a rule, active = well fitted inhibition curve with a large enough effect; inconclusive = small, poorly fitted or top-dose-only effect; inactive = flat fitted curve, though single readings scatter.
Form entry, call: pick from active, inactive

CC[C@]1(c2cccc(O)c2)CCCCN(C)C1 = inactive
C[C@]12CC[C@H](O)CC1=CCC1C2CC[C@]2(C)C(=O)CC[C@@H]12 (stereo partly drawn) = inactive

Here is another compound to look at.
Problem: Assay outcome for O=C1C=C2C=CC3C[C@@]2(O1)C1CCCCN31 (stereo partly drawn) : what was it?
Solution: active

###

Record form. Attribute: Potency. Fill in for each entry.
# Assay system: Glucocorticoid receptor (Homo sapiens) (UniProt P04150)
# Sequence (P04150 whole entry, looked up): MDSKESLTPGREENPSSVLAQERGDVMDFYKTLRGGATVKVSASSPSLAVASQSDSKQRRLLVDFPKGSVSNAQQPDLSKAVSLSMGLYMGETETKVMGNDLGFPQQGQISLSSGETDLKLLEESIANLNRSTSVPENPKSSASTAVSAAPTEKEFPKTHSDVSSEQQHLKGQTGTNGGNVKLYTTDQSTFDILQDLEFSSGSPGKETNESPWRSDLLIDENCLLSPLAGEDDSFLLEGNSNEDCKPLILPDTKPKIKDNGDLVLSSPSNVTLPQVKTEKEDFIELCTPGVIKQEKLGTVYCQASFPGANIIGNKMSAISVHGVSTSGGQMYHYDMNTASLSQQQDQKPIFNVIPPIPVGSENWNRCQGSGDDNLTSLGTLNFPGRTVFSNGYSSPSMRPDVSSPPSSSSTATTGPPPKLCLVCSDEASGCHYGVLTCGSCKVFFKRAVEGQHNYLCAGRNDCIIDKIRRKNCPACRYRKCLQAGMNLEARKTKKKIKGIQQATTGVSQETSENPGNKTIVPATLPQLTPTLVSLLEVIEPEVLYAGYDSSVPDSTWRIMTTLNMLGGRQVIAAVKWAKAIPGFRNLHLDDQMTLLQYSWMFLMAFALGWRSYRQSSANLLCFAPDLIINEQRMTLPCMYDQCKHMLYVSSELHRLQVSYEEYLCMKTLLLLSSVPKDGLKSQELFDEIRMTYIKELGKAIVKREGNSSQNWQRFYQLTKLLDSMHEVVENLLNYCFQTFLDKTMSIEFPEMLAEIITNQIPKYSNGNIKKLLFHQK
# Procedure details: GR-GFP Redistribution (AID 450); also: potency is read from the fitted curve at half-maximal effect
# Condition description: U2OS GR-GFP nuclear translocation, laser cytometry, 2 h
Activity calls are given as the source filed them.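 The calls were made as follows: active = compounds whose dose series gives a full or clear partial fitted curve of increased nuclear translocation; inconclusive = weak partial curve or effect only at the top dose; inactive = no dose-dependent translocation response.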

C[C@@H]1O[C@H](O[C@@H]2C=C3CC[C@H]4[C@@H](CC[C@]5(C)[C@@H](c6ccc(=O)oc6)CC[C@]45O)[C@@]3(C)CC2)[C@@H](O)[C@H](O)[C@@H]1O = > 20.6 µM (inactive)
C[C@H]1CC[C@@H]2[C@@H](C)C(=O)O[C@H]3O[C@@]4(C)CC[C@H]1[C@@]32OO4 = > 20.6 µM (inactive)
CCN(CC)C(=O)N[C@H]1C=C2c3cccc4[nH]cc(c34)C[C@@H]2N(C)C1 = > 20.6 µM (inactive)
C(#CCN1CCCC1)CN1CCCC1 = > 20.6 µM (inactive)
C=C1[C@@H]2CC[C@H]3[C@@]4(C)C[C@@H](O[C@@H]5O[C@H](CO)[C@H](OS(=O)(=O)O)[C@@H](OS(=O)(=O)O)[C@@H]5OC(=O)CC(C)C)C[C@@H](C(=O)O)[C@H]4CC[C@@]3(C2)[C@H]1O = > 20.6 µM (inactive)
Clc1ccc([C@@H](OCCN2CCCCC2)c2ccccc2)cc1 = > 20.6 µM (inactive)

Go through the items and report each one's Potency.
1. CN1CCC2=C[C@H](O)[C@@H]3OC(=O)c4cc5c(cc4[C@H]3[C@H]21)OCO5
2. c1cncc([C@H]2CCCCN2)c1
3. C/C=C1\C[C@H](C)[C@@](O)(CO)C(=O)OCC2=CCN3CC[C@@H](OC1=O)[C@@H]23
4. N#C/C(=C\c1ccc(O)c(O)c1)C(N)=S
5. CC[C@@H]1[C@@H]2C[C@H]3[C@H]4N(C)c5ccccc5[C@@]45C[C@@H]([C@@H]2[C@@H]5O)N3[C@H]1O

Solution:
["> 20.6 µM (inactive)", "> 46 µM (inactive)", "> 20.6 µM (inactive)", "> 46 µM (inactive)", "> 20.6 µM (inactive)"]

Looking up NCC#Cc1ccccc1 , I see its Potency listed as > 46 µM (inactive)

###

# Procedure details: Primary qHTS to identify inhibitors of SARS-CoV-2 cell entry (AID 1645846); also: nearly all actives have a fitted effect of over 45% in size
# Condition description: SARS-CoV-2 pseudovirus cell entry assay, luminescence
Results filed as inconclusive are left out. Calls of active or inactive are those of the source. Calls follow the shape of the full dose curve.
Form entry, call: pick from active, inactive

COc1cc(/C=C\C(=O)N2CCN(CC(=O)N3CCCC3)CC2)cc(OC)c1OC = inactive

Problem: Assay outcome for O=C([O-])C[O-].[Pt+2] : what was it?
Solution: inactive

Problem: Assay outcome for CC1=NN(c2ccc(C(=O)O)cc2)C(=O)/C1=C/c1ccc(-c2cc(C)c(C)cc2[N+](=O)[O-])o1 : what was it?
Solution: inactive

Problem: Assay outcome for CCCCNc1ncc2c(-c3ccc(CN4CCN(C)CC4)cc3)cn(C3CCC(O)CC3)c2n1 (configuration not stated) : what was it?
Solution: active
